test system: skin hair follicles and sebaceous glands of rats; experiment: Rat hair loss model: histopathological grading of skin hair follicles and sebaceous glands; type: in vivo, Wistar rats; details: grade ++; intravenous 2 mg/kg·d, 60 days; 10 rats per group
attribute_measured: number of rats with hair follicle and sebaceous gland grade ++

molecule: CNC1CCCC(N(C(=O)c2ccc(-n3nnc4cccnc43)cc2)c2ncccc2Cl)C1 (stereo not drawn)
result: 1
--
molecule: COC1CCCC(N(C(=O)c2ccc(-n3nnc4cccnc43)cc2)c2ncccc2Cl)C1 (stereo not drawn)
result: 0
--
molecule: Nc1ccccc1-c1ccc(C(=O)N(c2ncccc2Cl)[C@@H]2CCCNC2)cc1
result: 1
--
molecule: O=C(c1ccc(-c2ccccc2-c2nnn[nH]2)cc1)N(c1ncccc1Cl)[C@@H]1CCCNC1
result: 2
--
molecule: O=C(c1ccc(-n2nnc3cccnc32)cc1)N(c1ncccc1Cl)[C@@H]1CCNC1
result: 0
--
molecule: O=C(c1ccc(-n2nnc3cccnc32)cc1)N(c1ncccc1Cl)C1CCCC(O)C1 (stereo not drawn)
result: 1
